These data points were gathered from ChEMBL document CHEMBL1201862.

# Tested on: SK-OV-3
# testDescription: NCI tumour cell line growth inhibition, 48 h
Active and inactive are the calls of the source. Cut-off read from the data, not from the text of the source: active = GI50 up to about 1.1 µM and inactive = higher.
Your reply should match one of these outcome classes. active, inactive

Query :: What call does the record list for `Cc1cn(CCCCCCC2=NCCCN2)c(=O)[nH]c1=O` ?
Result :: inactive

Query :: What did the test return for C=C1CC(COc2ccc3c(C)c(Cl)c(=O)oc3c2)(c2ccccc2)OC1=O (stereo unspecified) ?
Result :: inactive

Query :: Which outcome did this test record for the compound `Nc1nc(S)nc2snnc12` ?
Result :: inactive

Query :: What classification did [O-][S+](c1ccc(Cl)cc1)c1ccccc1C1=NCCN1 (stereo unspecified) end up with in this test?
Result :: inactive

Query :: Per the assay record, what outcome was assigned to `C/C(=N/O)c1cccc(Nc2nc3ccc(Cl)cc3c3[nH]c4ccccc4c23)c1` ?
Result :: inactive

Query :: Which result was noted for this compound in the test: `C#C[C@]1(O)CC[C@H]2[C@@H]3CCC4=C/C(=N\OCCN(CC)CC)CC[C@]4(C)[C@H]3CC[C@@]21C`
Result :: inactive

Query :: // param item: CC[C@@]1(O)C[C@H](OC2CC(N(C)C)C(OC3CC(O)C(OC4CCC(=O)C(C)O4)C(C)O3)C(C)O2)c2c(cc3c(c2O)C(=O)c2c(O)ccc(O)c2C3=O)[C@H]1C(=O)OC (stereo partly specified) ; yields the recorded call
Result :: active

Query :: Please state the recorded outcome for this compound: `Clc1ccc(-c2nc(-c3ccc(Cl)cc3)[s+]s2)cc1`
Result :: inactive

Query :: Status in this test for `CCNC(=S)N/N=C1\C(=O)Nc2ccc([N+](=O)[O-])cc21` ?
Result :: inactive

Query :: For this compound, state the assay outcome: Cc1ccc(C(=O)O)c(CC2Cc3c(C)cccc3C2=O)c1 (stereo unspecified)
Result :: inactive

Query :: Field: outcome | Entry: `O=C(C[n+]1ccccc1)N/N=C(\C(=O)NC1=C(Cl)C(=O)c2ccccc2C1=O)c1c(O)c2ccc(O)cc2oc1=O`
Result :: inactive

Query :: For `O=C1Oc2ccccc2C(=O)/C1=C/NC(=S)NCCc1ccccc1` , what call appears in the results of this test?
Result :: inactive

Query :: Assay outcome for CCOC(=O)c1ccc2c(c1)nc1n2C(c2c(F)cccc2F)SC1 (stereo unspecified) : what was it?
Result :: inactive

Query :: // return assay outcome for `COc1cc2c(cc1OS(C)(=O)=O)N=C[C@@H]1CCCN1C2=O`
Result :: inactive

Query :: Record lookup: outcome of this test for `CCOC(=O)c1ccc2c(c1)Cc1cc([N+](=O)[O-])ccc1-2` ?
Result :: inactive

Query :: Tell me the assay call for `c1ccc(CCNc2ccccn2)nc1` please.
Result :: inactive

Query :: Hi team, can someone confirm the assay call for CC(C)OCC(O)COc1ccc2ccc(=O)oc2c1 (stereo unspecified) ?
Result :: inactive

Query :: Recorded test outcome, item CC1=CC[C@@]2(C)CC[C@](O)(C(C)C)C2C(OC(=O)c2ccccc2)C1 (stereo partly specified)
Result :: inactive

Query :: Look up the recorded call for `O=C(N[C@@H](c1ccccc1)[C@@H](O)C(=O)OCc1ccc2c(c1)OCO2)c1ccccc1` in this test.
Result :: inactive

Query :: Any idea what this test logged for `O=C(O)CC[N+]1=CCC(c2ccccc2)(c2ccccc2)O1` ?
Result :: inactive

Query :: Fill in: this test's call for `CC(C)(C)/N=c1/n(C(C)(C)C)oc(=O)n1-c1ccccc1` is ___
Result :: inactive
